- measuredOn: KRAS G12D (Homo sapiens (Human), UniProt P01116+P62937, G12D)
- Sequence (P01116 other isoform, or with tags, fused parts or gaps G12D): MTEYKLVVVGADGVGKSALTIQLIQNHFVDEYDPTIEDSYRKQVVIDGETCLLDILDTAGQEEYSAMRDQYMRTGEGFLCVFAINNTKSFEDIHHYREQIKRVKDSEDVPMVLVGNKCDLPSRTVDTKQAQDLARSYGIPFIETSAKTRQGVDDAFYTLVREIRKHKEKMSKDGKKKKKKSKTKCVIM
- Sequence (P62937 whole entry): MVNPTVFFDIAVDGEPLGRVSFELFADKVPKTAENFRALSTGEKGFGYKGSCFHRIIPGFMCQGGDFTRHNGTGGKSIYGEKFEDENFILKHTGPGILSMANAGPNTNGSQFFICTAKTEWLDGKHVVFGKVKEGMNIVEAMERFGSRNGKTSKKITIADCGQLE
- assayProcedure: Ras-Raf disruption/FRET/MOA assay (BRAF RBD, Cyclophilin A)
- Format: biochemical
- testParameters: read-out: KRAS G12D FRET IC50
- Method: Compound is present in plate wells as a 10-point 3-fold dilution series starting at a final concentration of 30 μM. After incubation at 25° C. for 3 hours, a mixture of Anti-His Eu—W1024 and anti-GST allophycocyanin is then added to assay sample wells at final concentrations of 10 nM and 50 nM, respectively, and the reaction incubated for an additional 1.5 hours. […]
attributeMeasured: IC50

• CCn1c(-c2cccnc2[C@H](C)OC)c2c3cc(ccc31)-c1cc(O)cc(c1)C[C@H](NC(=O)[C@H](C(C)C)N(C)C(=O)[C@H]1CC[C@@H](C(N)=O)O1)C(=O)N1CCC[C@H](N1)C(=O)OCC(C)(C)C2 = 100 to 1000 nM
• CCn1c(-c2cc(N3CCN(C)CC3)cnc2[C@H](C)OC)c2c3cc(ccc31)-c1csc(n1)C[C@H](NC(=O)[C@H](C(C)C)N(C)C(=O)[C@H]1CCCS1(=O)=O)C(=O)N1CCC[C@H](N1)C(=O)OCC(C)(C)C2 = 1000 to 10000 nM
• CCn1c(-c2cccnc2[C@H](C)OC)c2c3cc(ccc31)-c1cccc(c1)C[C@H](NC(=O)[C@H](C(C)C)N(C)C(=O)[C@H]1OCC[C@H]1c1ccccc1)C(=O)N1CCC[C@H](N1)C(=O)OCC(C)(C)C2 = > 10000 nM
• CCn1c(-c2cnccc2COC)c2c3cc(ccc31)-c1cc(O)cc(c1)C[C@H](NC(=O)[C@H](C(C)C)N(C)C(=O)N1CCOCC1)C(=O)N1CCC[C@H](N1)C(=O)OCC(C)(C)C2 = 1000 to 10000 nM
